// provenance: patent US20240390383A1

# system: GCase (GBA) in human fibroblast cell line GM10915 harboring the L444P GBA mutation (Homo sapiens, UniProt P04062, L483P)
# Construct: Human fibroblast cell line GM10915 harboring the L444P GBA mutation; host or cells: GM10915 human fibroblasts
# protocolSummary: GCase activity assay (4-MUG substrate, normalised to crystal violet staining) in L444P GBA fibroblasts
# Assay type: cell-based
# conditionParameters: concentration giving 150% GCase activity (1.5-fold induction), 5 days exposure, 8-point dose range
propertyName: GBA EC1.5
Answer with the number, then the unit.

As a guide, the following entries are already answered.
{"compound": "c1cnc(N2CCC(C3=NOCC(CN4CCCCC4)O3)C2)nc1 (stereo not shown)", "measurement": "50 µM"}
{"compound": "c1cc2n(n1)CCC(C1=NOCC(CN3CCCCC3)O1)C2 (stereo not shown)", "measurement": "50 µM"}
{"compound": "CC(=O)N1CCC(C2=NOCC(CN3CCCCC3)O2)CC1 (stereo not shown)", "measurement": "50 µM"}
{"compound": "COCC1(C2=NOCC(CN3CCCCC3)O2)CCNC1 (racemic)", "measurement": "49 µM"}
{"compound": "Nc1ccc(N2CCCC(C3=NOCC(CN4CCCCC4)O3)C2)nc1 (stereo not shown)", "measurement": "50 µM"}

Bench note: what GBA EC1.5 did CN1CCC(C2=NOCC(CN3CCCCC3)O2)CC1 (racemic) show?
9 µM

Next compound up: COc1ccc(CC2(C3=NOCC(CN4CCCCC4)O3)CCNCC2)c(C)n1 (stereo not shown)
50 µM

----------
# system: GCase (GBA) in human fibroblast cell line GM10915 harboring the L444P GBA mutation (Homo sapiens, UniProt P04062, L483P)
# Construct: Human fibroblast cell line GM10915 harboring the L444P GBA mutation; host or cells: GM10915 human fibroblasts
# protocolSummary: GCase activity assay (4-MUG substrate, normalised to crystal violet staining) in L444P GBA fibroblasts
# Type: cell-based
# conditionParameters: concentration giving 150% GCase activity (1.5-fold induction), 5 days exposure, 8-point dose range
# Protocol: Human fibroblast cell line GM10915 harboring the L444P GBA mutation was obtained from Coriell Biorepositories. […] The GM10915 cell line was cultured under standard cell culture conditions (37° C. and 5% CO2) in complete DMEM medium supplemented with nonessential amino acids (NEAA), 1% Pen-Strep and 12% FCS. […] Crystal violet staining is performed to obtain quantitative information about the relative density of cells adhering to multi-wells plates. […]
propertyName: GBA EC1.5 (µM)
Number in µM, nothing else.

Bench note: what GBA EC1.5 did O[C@@H]1CC[C@@H](C2=NOCC(CN3CCCCC3)O2)C1 (stereo partly drawn) show?
50

Next compound up: C[C@@]12CNC[C@]1(C1=NOCC(CN3CCCCC3)O1)C2 (relative stereo)
22

Next compound up: C1CCN(CCC2=NOCC(CN3CCCCC3)O2)CC1 (racemic)
4

----------
# system: GCase (GBA) in human fibroblast cell line GM10915 harboring the L444P GBA mutation (Homo sapiens, UniProt P04062, L483P)
# Construct: Human fibroblast cell line GM10915 harboring the L444P GBA mutation; host or cells: GM10915 human fibroblasts
# protocolSummary: GCase activity assay (4-MUG substrate, normalised to crystal violet staining) in L444P GBA fibroblasts
# Type: cell-based
# conditionParameters: maximum percent GCase activity relative to untreated cells in the dose range tested, 5 days exposure
propertyName: GBA Emax (%)
Number in %, nothing else.

As a guide, the following entries are already answered.
{"compound": "C1CCN(CC2CON=C([C@]34CCC[C@H]3NCC4)O2)CC1 (relative stereo) [compound 469]", "propertyName": "GBA Emax", "scaleUnit": "%", "measurement": 204}
{"compound": "CC(C)C1ON=C(C2CCN(C)C2)OC1CN1CCCCC1 (racemic) [compound 707]", "propertyName": "GBA Emax", "scaleUnit": "%", "measurement": 230}
{"compound": "CC1(C2=NOC[C@@H](CN3CCCCC3)O2)CCNCC1 [compound 892]", "propertyName": "GBA Emax", "scaleUnit": "%", "measurement": 274}

Then there is this compound:
Bench note: what GBA Emax did CC1(C2=NOC[C@@H](CN3CCCCC3)O2)CCNCC1 [compound 886] show?
203

----------
Entries annotated with measured Emax
# system: GCase (GBA) in human fibroblast cell line GM10915 harboring the L444P GBA mutation (Homo sapiens, UniProt P04062, L483P)
# Construct: Human fibroblast cell line GM10915 harboring the L444P GBA mutation; host or cells: GM10915 human fibroblasts
# protocolSummary: GCase activity assay (4-MUG substrate, normalised to crystal violet staining) in L444P GBA fibroblasts
# Assay type: cell-based
# conditionParameters: maximum percent GCase activity relative to untreated cells in the dose range tested, 5 days exposure
Number in %, nothing else.

As a guide, the following entries are already answered.
{"compound": "CN(C)C(=O)CN1CCCC(C2=NOCC(CN3CCCCC3)O2)C1 (racemic)", "Emax [%]": 234}
{"compound": "NC(=O)CN1CCCC(C2=NOCC(CN3CCCCC3)O2)C1 (racemic)", "Emax [%]": 198}
{"compound": "O=C1NCCC1C1=NOCC(CN2CCCCC2)O1 (stereo not drawn)", "Emax [%]": 111}
{"compound": "C[C@H](N)C(=O)N1CCCC(C2=NOCC(CN3CCCCC3)O2)C1 (stereo partly drawn)", "Emax [%]": 341}
{"compound": "CN(C)C(=O)N1CCCC(C2=NOCC(CN3CCCCC3)O2)C1 (stereo not drawn)", "Emax [%]": 126}
{"compound": "CN(C)[C@H]1CNC[C@H]1C1=NOCC(CN2CCCCC2)O1 (mixture of isomers)", "Emax [%]": 136}
{"compound": "CN(C)CC1CON=C(C2CCNC2)O1 (stereo not drawn)", "Emax [%]": 108}
{"compound": "C[C@@]12CNC[C@]1(C1=NOCC(CN3CCCCC3)O1)C2 (relative stereo)", "Emax [%]": 174}

Then there is this compound:
Bench note: what Emax did CN(C)CC1(C2=NOCC(CN3CCCCC3)O2)CCN(C)C1 (racemic) show?
190

----------
# system: GCase (GBA) in human fibroblast cell line GM10915 harboring the L444P GBA mutation (Homo sapiens, UniProt P04062, L483P)
# Construct: Human fibroblast cell line GM10915 harboring the L444P GBA mutation; host or cells: GM10915 human fibroblasts
# protocolSummary: GCase activity assay (4-MUG substrate, normalised to crystal violet staining) in L444P GBA fibroblasts
# Type: cell-based
# conditionParameters: concentration giving 150% GCase activity (1.5-fold induction), 5 days exposure, 8-point dose range
propertyName: GBA EC1.5 (µM)
Number in µM, nothing else.

Bench note: what GBA EC1.5 did c1nc(C2CCNCC2)sc1C1=NOCC(CN2CCCCC2)O1 (stereo not drawn) [compound 874] show?
5

----------
# system: GCase (GBA) in human fibroblast cell line GM10915 harboring the L444P GBA mutation (Homo sapiens, UniProt P04062, L483P)
# Construct: Human fibroblast cell line GM10915 harboring the L444P GBA mutation; host or cells: GM10915 human fibroblasts
# Sequence (P04062 40-536 L483P): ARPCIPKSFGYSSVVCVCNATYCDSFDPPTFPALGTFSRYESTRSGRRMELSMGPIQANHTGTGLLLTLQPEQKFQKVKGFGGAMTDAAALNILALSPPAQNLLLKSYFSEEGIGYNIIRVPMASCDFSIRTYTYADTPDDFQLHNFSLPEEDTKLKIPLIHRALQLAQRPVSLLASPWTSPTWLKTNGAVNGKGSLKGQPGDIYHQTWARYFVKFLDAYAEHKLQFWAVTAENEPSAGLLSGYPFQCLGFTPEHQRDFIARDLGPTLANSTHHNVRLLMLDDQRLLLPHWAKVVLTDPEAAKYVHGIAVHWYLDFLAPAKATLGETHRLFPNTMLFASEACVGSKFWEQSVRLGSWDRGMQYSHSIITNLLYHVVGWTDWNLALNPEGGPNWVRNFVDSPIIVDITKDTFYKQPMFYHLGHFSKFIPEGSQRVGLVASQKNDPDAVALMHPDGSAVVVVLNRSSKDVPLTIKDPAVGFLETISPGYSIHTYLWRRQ
# protocolSummary: GCase activity assay (4-MUG substrate, normalised to crystal violet staining) in L444P GBA fibroblasts
# Format: cell-based
# conditionParameters: concentration giving 150% GCase activity (1.5-fold induction), 5 days exposure, 8-point dose range
Entries annotated with measured GBA EC1.5
Number in µM, nothing else.

As a guide, the following entries are already answered.
{"compound": "CN1CCCC(C)(C2=NOCC(CN3CCCCC3)O2)C1 (racemic)", "GBA EC1.5 / µM": 11}
{"compound": "CC1CC(C2=NOCC(CN3CCCCC3)O2)CN1 (racemic)", "GBA EC1.5 / µM": 8}
{"compound": "CC1(C)CNCC1C1=NOCC(CN2CCCCC2)O1 (racemic)", "GBA EC1.5 / µM": 34}
{"compound": "c1sc(C2CCCNC2)nc1C1=NOCC(CN2CCCCC2)O1 (centres unmarked)", "GBA EC1.5 / µM": 4}

Bench note: what GBA EC1.5 did C1CCN(CC2CON=C(C3CCNC3)O2)CC1 (racemic) show?
17
